system: T1, murine HVEM (murine, UniProt Q80WM9 39-206, limits assumed); further: test concentration or dose not given here
T1 construct: also called Mouse
T1 sequence (looked up): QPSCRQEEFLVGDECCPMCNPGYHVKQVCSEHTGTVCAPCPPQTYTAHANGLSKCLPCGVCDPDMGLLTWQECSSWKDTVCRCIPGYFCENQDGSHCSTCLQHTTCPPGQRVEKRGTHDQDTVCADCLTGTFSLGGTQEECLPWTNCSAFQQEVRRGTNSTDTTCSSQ
assayExplanation: ELISA
Hi there, I'd appreciate the recorded ELISA signal for every entry that follows.
// keep it numeric: no unit symbol after the value

# get_value(readout='ELISA signal', item= Ab_035 (H5S15-9A10A) (antibody, V domains shown, also called Ab_35) VH: DVQLVESGGGLVQPGGSRKLSCAASGFTFSDFGMHWVRQAPEKGLEWVAHISSGSSTIYYADTVKGRFTISRDNPKNTLFLQMTSLRSEDTAMYYCARGAYGNFAWFPYWGQGTLVTVSA VL: DVVMTQTPLSLPVSLGDQASISCRSSQSLVHTNGNTYLHWYLQKPGQSPRLLIYKVSNRFSGVPDRFSGGGSGTDFTLKISRVEAEDLGVYFCSQSTHVPTFGSGTKLEIK )
0.045

# get_value(readout='ELISA signal', item= Ab_027 (H5S15-17A16A) (antibody, V domains shown, also called Ab_27) VH: EVQLQQSGAELVKPGASVKLSCTASGFNIKDTYMHWVKQRPEQGLEWIGRIAPANGKTKFDPKFQGKATITADTSSNTAYLQLSSLTSEDTAVYYCANYYGRSNDWFVYWGQGTLVTVSA VL: DVLMTQTPLSLPVSLGDQASISCRSSQSIVHSNGITYLEWYLQKPGQSPELLIYKVSNRFSGVPDRFSGSGSGTDFTLKISRVEAEDLGVYYCFQGSHVPLTFGAGTKLELK )
0.043

# get_value(readout='ELISA signal', item= Ab_026 (H5S15-11A3B) (antibody, V domains shown, also called Ab_26) VH: EVQLQQSGADLVKPGASVKLSCTASGFNIKDTYMHWVKQRPEQGLEWIGRIAPANGRTKYDPKFQGKATITADTSSNTAYLQLSSLTSEDTAVYYCANYYASSYDWFAYWGQGTLVTVSA VL: DVLMTQTPLSLTVSLGHQASISCRSSQSIVHSNGNTYLEWYLQKPGQSPKLLIYKVSNRFSGVPDRFSGSGSGTDFTLKISRVEAEDLGVYYCFQGSHVPLTFGAGTKLELK )
0.043
